Assay: p53 small molecule agonists, cell-based qHTS assay with human liver microsomes: qHTS cell viability counter screen (AID 1963579); further: on the % scale 0 is the no-effect control and ±100 the full control effect; nearly all actives have a fitted effect of over 45% in size
Details: p53RE-bla HCT-116 viability, ATP luminescence, 16 h, HLM; series mostly up to 66 µM
Inconclusive results are not listed. Active and inactive are the calls of the source. The call rests on the fitted dose curve.
outcomeMeasure: activity change, negative = cytotoxicity

Request: Please give the measured activity change, negative = cytotoxicity for this compound: CC(C)[C@H]1CC[C@@H](C)CC1=O
Response: inactive

Request: And O=C(O)CONC(=O)c1ccccc1 ?
Response: inactive

Request: And N[C@@H](Cc1c[nH]c2ccc(O)cc12)C(=O)O ?
Response: inactive

Request: And O=C(c1ccccc1)C1(O)CCCCC1 ?
Response: inactive

Request: And Cc1c(O)cccc1C(=O)N[C@@H](CSc1ccccc1)[C@H](O)CN1C[C@H]2CCCC[C@H]2C[C@H]1C(=O)NC(C)(C)C ?
Response: inactive

Note: attention shifts to another entry.
Request: Please give the measured activity change, negative = cytotoxicity for this compound: Nc1c(NC/C=C\COc2cc(CN3CCCCC3)ccn2)c(=O)c1=O
Response: 5.4% [at 13.5 µM] (inactive)

----------
Biological target: Muscarinic acetylcholine receptor M1 (Homo sapiens) (UniProt P11229)
Sequence (P11229 whole entry, looked up): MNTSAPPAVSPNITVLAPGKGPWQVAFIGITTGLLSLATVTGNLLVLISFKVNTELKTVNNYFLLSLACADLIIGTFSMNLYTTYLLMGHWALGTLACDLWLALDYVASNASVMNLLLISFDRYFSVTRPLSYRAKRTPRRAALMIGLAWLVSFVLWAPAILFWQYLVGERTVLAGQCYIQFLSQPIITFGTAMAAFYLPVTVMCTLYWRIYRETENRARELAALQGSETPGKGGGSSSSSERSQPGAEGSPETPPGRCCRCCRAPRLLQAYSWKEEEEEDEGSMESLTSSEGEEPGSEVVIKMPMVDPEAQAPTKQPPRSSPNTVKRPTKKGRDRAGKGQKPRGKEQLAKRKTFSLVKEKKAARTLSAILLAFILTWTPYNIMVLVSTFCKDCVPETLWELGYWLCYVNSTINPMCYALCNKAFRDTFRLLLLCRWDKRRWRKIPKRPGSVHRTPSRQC
Assay: Cholinergic receptor muscarinic 1 (CHRM1) small molecule agonists, cell-based qHTS assay (AID 1963589); further: on the % scale 0 is the no-effect control and ±100 the full control effect; nearly all actives have a fitted effect of over 35% in size
Conditions: CHRM1-CHO cells, agonist mode, calcium flux fluorescence; series mostly up to 76.8 µM
Active and inactive are the calls of the source. The call rests on the fitted dose curve.
outcomeMeasure: activation

Recorded results for 6 compounds are shown here.
Request: Please give the measured activation for this compound: CCCCC/C=C/C=C/C=O
Response: inactive

Request: And O=C1OC(=O)c2c(Cl)c(Cl)c(Cl)c(Cl)c21 ?
Response: inactive

Request: And CN(C)c1ccc2nc3ccc(=[N+](C)C)cc-3sc2c1 ?
Response: inactive

Request: And CC(C)(C)NC(N)=O ?
Response: inactive

Request: And Cc1nc(-c2ccc3c(c2)CCN(CCC2CCC(NC(=O)/C=C/c4ccc(F)cc4)CC2)CC3)no1 (stereo unspecified) ?
Response: inactive

Request: And Nc1ccncc1N ?
Response: inactive

I need activation for every entry listed below, if you could help.
1. CC(C#N)(CCC(=O)O)N=NC(C)(C#N)CCC(=O)O (stereo unspecified)
2. CC[C@H](C)[C@@H](C(=O)O)n1sc2ccccc2c1=O
3. O=[N+]([O-])c1cncn1CCN1CCOCC1
4. C1CCSC1
5. COC(=O)C1=C(C)NC(C)=C(C(=O)OCCN(C)Cc2ccccc2)C1c1cccc([N+](=O)[O-])c1 (stereo unspecified)

Response:
1: inactive; 2: inactive; 3: inactive; 4: inactive; 5: inactive

I need activation for every entry listed below, if you could help.
1. COc1ccc2cc1Oc1cc3c(cc1OC)CC[N+](C)(C)[C@H]3Cc1ccc(cc1)Oc1c(OC)c(OC)cc3c1[C@@H](C2)[N+](C)(C)CC3
2. CCNc1nc(N)nc(Cl)n1

Response:
["inactive", "inactive"]

I need activation for every entry listed below, if you could help.
1. CC(C)COC(=O)c1ccc(N)cc1
2. COc1ccc(OC)c(C(O)CNC(=O)CN)c1 (stereo unspecified)

Response:
["inactive", "inactive"]

----------
Assay: Nuclear factor erythroid 2-related factor 2/antioxidant responsive element (Nrf2/ARE) small molecule agonists: luciferase reporter gene qHTS assay in human keratinocytes (AID 1919969); further: nearly all actives have a fitted effect of over 35% in size
Details: KeratinoSens HaCaT ARE-luciferase, luminescence, 24 h; series mostly up to 92.4 µM
Records with an inconclusive call do not appear. Activity calls are given as the source filed them. The call rests on the fitted dose curve.
Mark one answer only. Choices: 1 = active, 0 = inactive

Look over these answered cases.
Request: So what was the verdict on C=CC(C)(CCC=C(C)C)OC(=O)CC (stereo unspecified) in this test?
Response: 0

Request: And CC(=O)CC(N)=O ?
Response: 0

Request: And NC(=O)c1ccc(N)cc1 ?
Response: 0

Continuing:
Request: So what was the verdict on CCCCCC(=O)O[C@]1(C(C)=O)CC[C@H]2[C@@H]3CCC4=CC(=O)CC[C@]4(C)[C@H]3CC[C@@]21C in this test?
Response: 0

Request: And N=C(N=C(N)N)N1CCOCC1 ?
Response: 0

Request: And CN(C)c1ccc(C(=C2C=CC(=[N+](C)C)C=C2)c2ccc(N(C)C)cc2)cc1 ?
Response: 1

----------
Biological target: 5-hydroxytryptamine receptor 2A (Homo sapiens)
Assay: 5-hydroxytryptamine receptor 2A (HTR2A) small molecule antagonists, cell-based qHTS assay (AID 1963586); further: on the % scale 0 is the no-effect control and ±100 the full control effect; nearly all actives have a fitted effect of over 45% in size
Conditions: HTR2A-CHO cells, DOI-induced calcium flux, fluorescence; series mostly up to 61.5 µM
Records with an inconclusive call do not appear. Calls of active or inactive are those of the source. The call rests on the fitted dose curve.
outcomeMeasure: activity, negative = inhibition

Recorded results for 5 compounds are shown here.
Request: Please give the measured activity, negative = inhibition for this compound: COc1cc(C(=O)N2CCCCCCC2)cc(OC)c1OC
Response: inactive

Request: And OC[C@H]1O[C@@H](O[C@H]2[C@H](O)[C@@H](O)[C@H](O)O[C@@H]2CO)[C@H](O)[C@@H](O)[C@H]1O ?
Response: inactive

Request: And O=C(/C=C/c1ccccc1)OCc1ccccc1 ?
Response: inactive

Request: And C/C=C(\C)C(=O)OCc1ccccc1 ?
Response: inactive

Request: And O=C(O)c1cccc(Cl)c1Cl ?
Response: inactive

I need activity, negative = inhibition for every entry listed below, if you could help.
1. CC1=CC[C@@H](C(C)(C)O)CC1
2. CO[C@@]1(NC(=O)C(C(=O)O)c2ccc(O)cc2)C(=O)N2C(C(=O)O)=C(CSc3nnnn3C)CO[C@@H]21 (some centres not stated)
3. CC1CCC(C(C)(C)S)C(=O)C1 (configuration not stated)
4. CC1CC(=O)CC(C)(C)C1 (configuration not stated)
5. CC(C)(O)C(=O)O
6. CSc1nnc(C(C)(C)C)c(=O)[nH]1
7. C[C@@H]1CC(=O)NN=C1c1ccc(NN=C(C#N)C#N)cc1

Response:
1. inactive
2. inactive
3. inactive
4. inactive
5. inactive
6. inactive
7. inactive

I need activity, negative = inhibition for every entry listed below, if you could help.
1. Cc1ccc(C(=O)O)cc1
2. COC(OC)C(C)c1ccccc1 (configuration not stated)
3. CC(C)S
4. CCCCC(CC)COC(C)=O (configuration not stated)
5. CC(C)CC=O
6. CC(C)CCO
7. NC(=S)Nc1cccc2ccccc12

Response:
inactive
inactive
inactive
inactive
inactive
inactive
12.8% [at 5.62 µM] (inactive)

I need activity, negative = inhibition for every entry listed below, if you could help.
1. c1ccc2ncccc2c1
2. CC(=O)OCCC1CCCCC1
3. Nc1nnnn1-c1ccccc1
4. CC(C#N)(CCC(=O)O)N=NC(C)(C#N)CCC(=O)O (configuration not stated)
5. C[N+]1([O-])CCOCC1
6. CC[C@H](C)[C@H](N)C(=O)O
7. CCCCC1CCC(O)CC1 (configuration not stated)

Response:
inactive
inactive
inactive
inactive
inactive
inactive
inactive

I need activity, negative = inhibition for every entry listed below, if you could help.
1. CCOC(=O)c1ccc(C)cc1
2. C=CC(C)CCC=C(C)C (configuration not stated)
3. CCc1ccc(Br)cc1

Response:
1: inactive; 2: inactive; 3: inactive

I need activity, negative = inhibition for every entry listed below, if you could help.
1. CO[Si](CCCNCCC[Si](OC)(OC)OC)(OC)OC
2. CC(C)CCCO
3. FC(F)(F)C(Cl)(Cl)Cl
4. CC(C)CCCCCOC(=O)CCS
5. CC1(C)[C@H]2CC[C@](C)(C2)[C@H]1O
6. [Cl][Nd]([Cl])[Cl]
7. Cc1ccc(C)cc1
8. NC(=O)c1ccc(N)cc1

Response:
1. inactive
2. inactive
3. inactive
4. inactive
5. inactive
6. inactive
7. inactive
8. inactive

I need activity, negative = inhibition for every entry listed below, if you could help.
1. CCCCCCCCOCCC#N
2. C[Si](C)=O
3. N=C(N)c1ccc2cc(OC(=O)c3ccc(N=C(N)N)cc3)ccc2c1
4. CC(C)C(=O)O
5. c1ccc2cnccc2c1

Response:
1. inactive
2. 1.83% [at 5.62 µM] (inactive)
3. inactive
4. inactive
5. inactive

I need activity, negative = inhibition for every entry listed below, if you could help.
1. Cc1ccc(O)c([N+](=O)[O-])c1
2. C=C(C)C(=O)NCCCN(C)C
3. COc1ccc(C#N)cc1
4. CC1=C(O)C(=O)C(C)O1 (configuration not stated)
5. C=CC(C)(O)CC/C=C(/C)CCC=C(C)C (configuration not stated)
6. CCCN[C@H]1CCc2nc(N)sc2C1

Response:
1: inactive; 2: inactive; 3: inactive; 4: inactive; 5: inactive; 6: inactive

I need activity, negative = inhibition for every entry listed below, if you could help.
1. Nc1cc(S(=O)(=O)O)ccc1S(=O)(=O)O
2. Cc1cc(N)n(-c2ccccc2)n1
3. C=CCCCCCCCCC(=O)OCCCC
4. CC(C)(C)CC(C)(C)c1ccc(O)c(-n2nc3ccccc3n2)c1
5. N[C@H]1C(O)O[C@H](CO)[C@@H](O)[C@@H]1O (some centres not stated)
6. O=C(O)c1ccccc1S
7. CCCCOC(=O)C(C)OC(=O)CCC (configuration not stated)

Response:
["inactive", "inactive", "inactive", "inactive", "inactive", "inactive", "inactive"]

Sourced from PubChem BioAssay (Tox21)
